ASSAY_EXPLANATION: Half life in rat at 0.5 mg/kg, iv and 0.5 mg/kg, po
Format: ADME, organism-based
CONDITION_DETAILS: in vivo
Quick reference for half-life among some molecules

// known answers, use as guide
>  <CHEMICAL_SMILES>
CC(C)(C)CN1CCC2(CC1)CN(c1ccccc1Nc1nnc(-c3ccc(OC(F)(F)F)cc3)s1)c1c(O)ccc(Cl)c12

>  <half-life>
12 h

$$$$
>  <CHEMICAL_SMILES>
CC(C)(C)CN1CCC2(CC1)CN(c1ccccc1NC(=O)Nc1nc3ccc(Cl)nc3s1)c1c(O)ccc(Cl)c12

>  <half-life>
9.9 h

$$$$
>  <CHEMICAL_SMILES>
CC(C)(C)CN1CCC2(CC1)CN(c1ccccc1Nc1nnc(-c3ccc(C(F)(F)F)cc3)s1)c1c(O)ccc(C(F)(F)F)c12

>  <half-life>
24 h

$$$$

# context switch: different molecule, same half-life
Look up half-life: CC(C)(C)CN1CCC2(CC1)CN(c1ccccc1Nc1nnc(-c3ccc(C(C)(C)C)cc3)s1)c1c(O)ccc(C(F)(F)F)c12
13 h

====

ASSAY_EXPLANATION: Volume of distribution at steady state in rat at 0.5 mg/kg, iv and 0.5 mg/kg, po
Type: ADME, organism-based
CONDITION_DETAILS: in vivo, read-out: Vdss
READOUT: Vd

Some solved cases for reference:
>  <CHEMICAL_SMILES>
CC(C)(C)CN1CCC2(CC1)CN(c1ccccc1Nc1nnc(-c3ccc(C(C)(C)C)cc3)s1)c1c(O)ccc(C(F)(F)F)c12

>  <READOUT>
Vd

>  <MEASURED>
1.2 L/kg

$$$$
>  <CHEMICAL_SMILES>
CC(C)(C)CN1CCC2(CC1)CN(c1ccccc1NC(=O)Nc1nc3ccc(Cl)nc3s1)c1c(O)ccc(Cl)c12

>  <READOUT>
Vd

>  <MEASURED>
5.4 L/kg

$$$$
>  <CHEMICAL_SMILES>
CC(C)(C)CN1CCC2(CC1)CN(c1ccccc1Nc1nnc(-c3ccc(C(F)(F)F)cc3)s1)c1c(O)ccc(C(F)(F)F)c12

>  <READOUT>
Vd

>  <MEASURED>
6 L/kg

$$$$

Would you mind telling me what Vd value was observed for CC(C)(C)CN1CCC2(CC1)CN(c1ccccc1Nc1nnc(-c3ccc(OC(F)(F)F)cc3)s1)c1c(O)ccc(Cl)c12 ?
2.1 L/kg

====

ASSAY_EXPLANATION: Oral bioavailability in rat at 0.5 mg/kg
Assay type: ADME, organism-based
CONDITION_DETAILS: in vivo
READOUT: bioavailability (%)
Give just the number in %; leave the unit off.

Some solved cases for reference:
>  <CHEMICAL_SMILES>
CC(C)(C)CN1CCC2(CC1)CN(c1ccccc1Nc1nnc(-c3ccc(C(C)(C)C)cc3)s1)c1c(O)ccc(C(F)(F)F)c12

>  <MEASURED>
14

$$$$
>  <CHEMICAL_SMILES>
CC(C)(C)CN1CCC2(CC1)CN(c1ccccc1Nc1nnc(-c3ccc(C(F)(F)F)cc3)s1)c1c(O)ccc(C(F)(F)F)c12

>  <MEASURED>
22

$$$$
>  <CHEMICAL_SMILES>
CC(C)(C)CN1CCC2(CC1)CN(c1ccccc1Nc1nnc(-c3ccc(OC(F)(F)F)cc3)s1)c1c(O)ccc(Cl)c12

>  <MEASURED>
28

$$$$

Need bioavailability, item CC(C)(C)CN1CCC2(CC1)CN(c1ccccc1NC(=O)Nc1nc3ccc(Cl)nc3s1)c1c(O)ccc(Cl)c12
36

====

TESTED_TARGET: P2Y purinoceptor 1 (Homo sapiens, UniProt P47900)
Sequence (P47900 whole entry): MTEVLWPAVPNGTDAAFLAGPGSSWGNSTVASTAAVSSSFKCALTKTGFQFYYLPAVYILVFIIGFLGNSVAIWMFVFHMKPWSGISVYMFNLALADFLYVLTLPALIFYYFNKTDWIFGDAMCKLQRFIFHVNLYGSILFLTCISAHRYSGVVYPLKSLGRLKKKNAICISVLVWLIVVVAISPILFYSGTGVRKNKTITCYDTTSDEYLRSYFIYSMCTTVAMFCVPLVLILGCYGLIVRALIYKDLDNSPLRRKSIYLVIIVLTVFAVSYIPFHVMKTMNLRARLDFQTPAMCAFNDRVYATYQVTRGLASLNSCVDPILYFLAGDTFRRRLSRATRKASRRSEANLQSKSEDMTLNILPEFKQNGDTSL
ASSAY_EXPLANATION: Inhibition of P2Y1 receptor in human washed platelets assessed as decrease in 2-methylthio-ADP-induced calcium signal transduction pathway activation by FLIPR assay
In this section, each of the molecules is paired with its reported pIC50.
Please report pIC50 as the negative decimal logarithm of the molar concentration, giving only the number.

Below are worked cases with known answers.
>  <CHEMICAL_SMILES>
CC(C)(C)CN1CCC2(CC1)CN(c1ccccc1Nc1nnc(-c3ccc(OC(F)(F)F)cc3)s1)c1c(O)ccc(Cl)c12

>  <TESTED_TARGET>
P2Y purinoceptor 1 (Homo sapiens, UniProt P47900)

>  <pIC50>
9.20

$$$$
>  <CHEMICAL_SMILES>
CC(C)(C)CN1CCC2(CC1)CN(c1ccccc1Nc1nnc(-c3ccccc3)o1)c1c(O)ccc(Cl)c12

>  <TESTED_TARGET>
P2Y purinoceptor 1 (Homo sapiens, UniProt P47900)

>  <pIC50>
7.31

$$$$
>  <CHEMICAL_SMILES>
Cc1cc(-c2nnc(Nc3ccccc3N3CC4(CCN(CC(C)(C)C)CC4)c4c(Cl)ccc(O)c43)s2)n(C)n1

>  <TESTED_TARGET>
P2Y purinoceptor 1 (Homo sapiens, UniProt P47900)

>  <pIC50>
9.70

$$$$

Can you look up pIC50 on P2Y purinoceptor 1 (Homo sapiens, UniProt P47900) for CC(C)(C)CN1CCC2(CC1)CN(c1ccccc1Nc1nnc(-c3ccc(C(F)(F)F)cc3)s1)c1c(O)ccc(C(F)(F)F)c12 ?
10.10

====

Assay read-out pKi; system under study: P2Y purinoceptor 1 (Homo sapiens, UniProt P47900).
Note on pKi: it is the negative log10 of concentration, concentration in mol/L.

Solved cases below.
>  <CHEMICAL_SMILES>
CC(C)(C)CN1CCC2(CC1)CN(c1ccccc1Nc1nnc(-c3ccccc3)o1)c1c(O)ccc(Cl)c12

>  <TESTED_TARGET>
P2Y purinoceptor 1 (Homo sapiens, UniProt P47900)

>  <pKi>
8.21

$$$$
>  <CHEMICAL_SMILES>
CC(C)(C)CN1CCC2(CC1)CN(c1ccccc1Nc1nnc(-c3ccc(OC(F)(F)F)cc3)s1)c1c(O)ccc(F)c12

>  <TESTED_TARGET>
P2Y purinoceptor 1 (Homo sapiens, UniProt P47900)

>  <pKi>
8.28

$$$$
>  <CHEMICAL_SMILES>
CC(C)(C)CN1CCC2(CC1)CN(c1ccccc1Nc1nnc(-c3ccc(C(C)(C)C)cc3)s1)c1c(O)ccc(C#N)c12

>  <TESTED_TARGET>
P2Y purinoceptor 1 (Homo sapiens, UniProt P47900)

>  <pKi>
8.01

$$$$
>  <CHEMICAL_SMILES>
CC(C)(C)CN1CCC2(CC1)CN(c1ccccc1Nc1ccc(-c3ccccc3)nn1)c1c(O)ccc(Cl)c12

>  <TESTED_TARGET>
P2Y purinoceptor 1 (Homo sapiens, UniProt P47900)

>  <pKi>
6.29

$$$$
>  <CHEMICAL_SMILES>
CC(C)(C)CN1CCC2(CC1)CN(c1ccccc1Nc1ncc(-c3ccccc3)s1)c1c(O)ccc(Cl)c12

>  <TESTED_TARGET>
P2Y purinoceptor 1 (Homo sapiens, UniProt P47900)

>  <pKi>
7.77

$$$$

Turning now to a further molecule:
Give recorded pKi with P2Y purinoceptor 1 (Homo sapiens, UniProt P47900) for the following molecule: CC(C)(C)CN1CCC2(CC1)CN(c1ccccc1Nc1cnc(-c3ccccc3)cn1)c1c(O)ccc(Cl)c12
7.31

====

ASSAY_EXPLANATION: Total AUC in rat at 0.5 mg/kg, iv
Assay type: ADME, organism-based
Design: time AUCmax, dose 0.5 mg/kg, route intravenous
CONDITION_DETAILS: in vivo
// reported AUC for each item listed
Express the result in µM·h but write the number alone.

Reference set, count: 3
>  <CHEMICAL_SMILES>
CC(C)(C)CN1CCC2(CC1)CN(c1ccccc1Nc1nnc(-c3ccc(C(C)(C)C)cc3)s1)c1c(O)ccc(C(F)(F)F)c12

>  <READING_UNIT>
µM·h

>  <AUC>
6.96

$$$$
>  <CHEMICAL_SMILES>
CC(C)(C)CN1CCC2(CC1)CN(c1ccccc1Nc1nnc(-c3ccc(C(F)(F)F)cc3)s1)c1c(O)ccc(C(F)(F)F)c12

>  <READING_UNIT>
µM·h

>  <AUC>
4.63

$$$$
>  <CHEMICAL_SMILES>
CC(C)(C)CN1CCC2(CC1)CN(c1ccccc1NC(=O)Nc1nc3ccc(Cl)nc3s1)c1c(O)ccc(Cl)c12

>  <READING_UNIT>
µM·h

>  <AUC>
1.33

$$$$

Give its AUC value. Item: CC(C)(C)CN1CCC2(CC1)CN(c1ccccc1Nc1nnc(-c3ccc(OC(F)(F)F)cc3)s1)c1c(O)ccc(Cl)c12
6.21

====

Item-by-item account of remaining at 10 min
ASSAY_EXPLANATION: Metabolic stability in human liver microsomes assessed as compound remaining after 10 mins
Type: ADME
CONDITION_DETAILS: read-out: Stability
Write it as a number; the unit % goes unstated.

What value of remaining at 10 min has been recorded for this entry: CC(C)(C)CN1CCC2(CC1)CN(c1ccccc1Nc1nnc(-c3ccc(OC(F)(F)F)cc3)s1)c1c(O)ccc(Cl)c12
99

Same lookup for CC(C)(C)CN1CCC2(CC1)CN(c1ccccc1Nc1nnc(-c3ccc(C(C)(C)C)cc3)s1)c1c(O)ccc(C(F)(F)F)c12 , please.
82

Check CC(C)(C)CN1CCC2(CC1)CN(c1ccccc1NC(=O)Nc1nc3ccc(Cl)nc3s1)c1c(O)ccc(Cl)c12 too.
100

Can you check CC(C)(C)CN1CCC2(CC1)CN(c1ccccc1Nc1nnc(-c3ccc(C(F)(F)F)cc3)s1)c1c(O)ccc(C(F)(F)F)c12 next?
86
